- experimentalProtocol: inhibitors of the yeast RAM network, pilot screen, dse1pr::URA3 reporter, 5-FOA selection (AID 869);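 note: 0% = DMSO wells with no growth and 100% = 10 µM 1-NA-PP1 with full growth; RAM network block rescues cells from 5-FOA so hits raise OD615 growth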
- conditionDescription: S. cerevisiae dse1pr::URA3 5-FOA growth, OD615, 2 d; at 10 µM; stronger effect = higher value; strain carries analog-sensitive mutant Cbk1 kinase
Classification field: t = inhibition at or over 1%; f = inhibition under 1%.

Query: Does CCC1(C)Cc2c(sc3c2c2ncnn2c2nnc(SCC(=O)NCc4ccco4)n32)CO1 (stereo unspecified) have a reported inhibition of at least 1%?
Result: f

====

- experimentalProtocol: 384-well plate pilot, post-Golgi transport modulator project, inhibition of yeast transport mutant growth (AID 636)
- conditionDescription: absorbance 615 nm, about 18 h, stronger effect = higher value
Square brackets hold non-standard residues; d marks the D form. Peptide text beside a SMILES is read from it. ξ: configuration not given here. ξV = CC(C)C(N)C(=O)O
For each entry below, report its inhibition value.
One number for each entry, in %.

compound	unitName	inhibition
O=c1ccc2cc3c([nH]c4ccc(Br)cc43)oc-2c1O	%	-4.16
CN(C#N)c1nc(N2CCOCC2)nc(N2CCOCC2)n1	%	-1.22
CC(=O)Nc1ccc(OC(=O)c2cccnc2)cc1	%	-7.57

Quick request: inhibition for each listed item, please.
1. Cc1ccc(O)c(C(CC(=O)N2CCCC2)c2ccccc2)c1 (stereo not drawn)
2. O=C(c1cn(-c2ccccc2)nc1-c1cccs1)N1CCN(c2ccccn2)CC1
3. Cc1ccc(S(=O)(=O)N2CCOCC2)cc1C(=O)Nc1ccccn1
4. CCc1nnc(NC(=O)NCN2C(=O)C3C4C=CC(C4)C3C2=O)s1 (stereo not drawn)
5. O=C(NC1CCCCC1)c1ccc(S(=O)(=O)N2CCCCC2)cc1
6. O=C(O)c1cc(-c2ccccc2Cl)n[nH]1
7. CC(C)N1C(=O)C2C(C(=O)NC3CCCCC3)C3C=CC2(O3)C1C(=O)NC1CCCC1 (stereo not drawn)

Result:
1: -0.38; 2: -3.29; 3: -6.76; 4: -6.44; 5: 4.29; 6: -2.34; 7: -4.67

For each of the items listed, what is its inhibition?
1. Cc1ccc(-n2nnnc2SCC(=O)Nc2c(C)n(C)n(-c3ccccc3)c2=O)cc1
2. CC(=O)NC(C(=O)NCC(N)=O)C(C)C (stereo not drawn) (Ac-[ξV]-Gly-NH2)
3. N#Cc1c(NC(NC(=O)c2ccco2)C(=O)c2ccccc2)sc2c1CCCC2 (stereo not drawn)

Result:
1. 0.8
2. -5.58
3. 80.4

Below are 5 compounds. Give each one its inhibition.
1. CC(=O)N1C(=O)N(C)C2C1N(C(C)=O)C(=O)N2C (stereo not drawn)
2. CCOC(=O)C1CCCN(c2c(NCc3ccco3)c(=O)c2=O)C1 (stereo not drawn)
3. O=C(Cn1nnc(-c2ccccc2)n1)Nc1ccccc1N1CCOCC1
4. CCn1nnnc1SCC(=O)Nc1nnc(C(C)C)s1
5. COc1cc(OC)cc(-c2nnc(SCC(=O)Nc3cc(C)on3)o2)c1

Result:
[-1.18, 2, -7.2, -4.4, -5.53]

For each of the compounds below, state inhibition.
1. CCCc1nc(N2CCOCC2)c(C#N)c2c1CCCC2
2. COc1ccc(C(C)=O)c(OC(=O)c2ccc(OC)c(OC)c2)c1

Result:
1: -0.13; 2: -6.4

====

So I've got a bunch of compounds here, and I need their growth inhibition values.
- experimentalProtocol: OD615 S. cerevisiae growth inhibition, permissive medium, pilot counter-assay, permissive growth control for S. cerevisiae lifespan shortening project (AID 705)
- conditionDescription: OD615, 24 h, at 10 µM, stronger effect = higher value
One number for each entry, in %.

Take a look at these entries with their results.
compound	growth inhibition, %
Cc1cccc(N(C)C(=O)CCS(=O)(=O)c2cccc3nonc23)c1	-5.82
COc1ccc(CC(=O)N2CC3(C)CC2CC(C)(C)C3)cc1OC (stereo not given)	-8.12
Cc1cc2ccccc2n1CCNC(=O)COc1ccccc1	-3.44
Cc1ccc(-c2noc(CSc3nnnn3-c3ccccc3)n2)cc1	-16.9
O=C(Cn1ncc2c(=O)oc3ccccc3c21)N1CCC(N2CCCCC2)CC1	9.66
Cc1cc(Nc2ccc(Br)cc2F)n2ncnc2n1	-2.09
CCOc1ccccc1CNC(=O)c1cc2occc2n1C	1.53
CCN1CCN(C(=O)C(NS(=O)(=O)c2ccc3nc(C)sc3c2)C(C)C)CC1 (stereo not given)	-15.9

Okay, here is my list. What is growth inhibition for each of these?
1. CCC(C(=O)OC)n1cnc2c(nnn2-c2cccc(Cl)c2)c1=O (stereo not given)
2. O=S(=O)(Cc1ccccc1)N1CCc2ccccc2C1
3. CC1CC(C)CN(C(=O)CSc2nnc(-c3ccc(Cl)s3)o2)C1 (stereo not given)
4. COC(=O)c1cccnc1-n1c(=O)c2cccnc2n(Cc2cccc(OC)c2)c1=O
5. CC(=O)c1cc(CN2C(=O)CCC2=O)cs1

Result:
1. -3.35
2. 2.65
3. -4.71
4. -13.7
5. -5.33

====

- experimentalProtocol: Restrictive medium S. cerevisiae growth inhibition, OD615, pilot screen of yeast lifespan reduction project, restrictive growth control (AID 706);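 note: modified DeaD lifespan yeast strain shifted to restrictive glucose medium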
- conditionDescription: OD615, 48 h, at 10 µM, stronger effect = higher value
parameterMeasured: growth inhibition (%)
Numbers only, in %.

Worked cases, answers included:
compound	growth inhibition, %
CCOC(=O)N1CCN(C2CC(=O)N(c3ccccc3)C2=O)CC1 (stereo unspecified)	10.5
NC(=O)CSc1nnc(Cn2c(=O)sc3ccccc32)n1-c1ccccc1	-0.84
COc1ccc(OC)c2sc(NC(=O)C3=COCCO3)nc12	0.525
CNC(=O)CN1C(=O)CSc2ncccc21	2.23
O=C1c2ccccc2NC(c2ccccc2)N1c1ccc(O)cc1 (stereo unspecified)	1.65
CC(=O)C1=C(C)NC(SCC(N)=O)=C(C#N)C1c1cccnc1 (stereo unspecified)	20.8
CC1CCN(CCNC(=O)c2ccc(NC(=O)C3CCCO3)cc2)CC1 (stereo unspecified)	-2.63
O=C(Cn1cc2c(n1)CCCCC2)NCc1cccs1	0.58
CCOc1ccc(-n2c(SCc3ccc(C(=O)OC)o3)nc3c(c2=O)SCC3)cc1	-16.2
ON1C(c2ccc(Cl)cc2Cl)N(O)[C@H]2CCCC[C@H]21 (stereo partly specified)	-5.43

Alright, here's another compound for you.
Query: Name the recorded growth inhibition for CCN1CCN(c2cc(C)c3cc(NC(=O)c4ccc5c(c4)OCO5)ccc3n2)CC1 .
Result: -7.6

====

- experimentalProtocol: 384-well plate pilot, post-Golgi transport modulator project, inhibition of yeast transport mutant growth (AID 636)
- conditionDescription: absorbance 615 nm, about 18 h, stronger effect = higher value
parameterMeasured: inhibition (%)
Answers are plain numbers, in %.

Illustrative cases are given below, each with its answer.
molecule	inhibition / %
COc1ccc(NC(=O)C(C)NS(=O)(=O)c2ccccc2)cc1Cl (stereo not drawn)	-3.87
Cc1oc(-c2ccccc2F)nc1CS(=O)(=O)CC(=O)NCCCN1CCc2ccccc2C1	-1.6
O=C1CN(C(=O)CN2CCCC2)C(c2ccccc2)c2cc(Br)ccc2N1 (stereo not drawn)	-4.67

Please report inhibition for every entry that follows.
1. COc1cc(N2C(=O)CSC23C(=O)Nc2ccccc23)cc(OC)c1OC (stereo not drawn)
2. O=C1N=C(N2CCOCC2)CS1
3. CCN(CC)S(=O)(=O)c1ccc(N2CCCC2)c(C(=O)OCC(=O)/C(C#N)=C(\C)N)c1
4. COc1cccc(-c2cc(C(F)(F)F)n3ncc(C(=O)O)c3n2)c1

Result:
1: -1.97; 2: -4.27; 3: -6.4; 4: -3.2

Each molecule below has a recorded value; state its inhibition.
1. CCOC(=O)Cc1c(C)c2c(O)cc(O)cc2oc1=O
2. Nc1nc(CSCc2ccccc2)nc(N2CCOCC2)n1

Result:
1. -6.27
2. -5.27

Field: inhibition. Fill in for each record below.
1. Cc1cccc(C)c1OCc1nnc2c3cnn(C)c3ncn12
2. CC(C)CNS(=O)(=O)c1ccc(OCC(=O)Nc2ccc3c(c2)OCO3)c(Cl)c1
3. CCOC(=O)Nc1ccc(OC)cc1S(=O)(=O)N1CCCCC1
4. CCOc1cc(C(=O)NCC2CCCO2)cc(OCC)c1OCC (stereo not drawn)
5. CC(NO)C(C)(C)NO (stereo not drawn)
6. CCOC(=O)c1[nH]c2ccccc2c1NC(=O)C(C)(C)C
7. COc1cc(OC)cc(C(=O)NCCN2CCOCC2)c1
8. CCN(Cc1nc2cc(OC)c(OC)cc2c(=O)[nH]1)C(=O)c1ccc(S(=O)(=O)N(C)C)cc1

Result:
1: -2.11; 2: -5.39; 3: -1.84; 4: -4.86; 5: -2.67; 6: -5.33; 7: -4.47; 8: -3.07

====

- experimentalProtocol: reducers of endogenous Her2 protein level, primary screen, SKBR3 breast tumor cells, AlphaScreen, ATP viability (AID 461);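 note: percent of carrier control wells set as 100% viability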
- conditionDescription: 18-24 h, measured here: SKBR3 viability, ATP luminescence, at 10 µM
parameterMeasured: viability (%)
Give bare numbers, in %.

// solved cases for viability follow
molecule	unitName	viability
COc1ccc(-c2cc(C(=O)N3CCN(Cc4ccccc4)CC3)no2)cc1OC	%	99
CCCc1nc(N2CCOCC2)c(C#N)c2c1CCCC2	%	81
COc1ccc(CC(=O)Nc2c3c(nn2-c2cccc(Cl)c2)CS(=O)(=O)C3)cc1	%	84.5
Cc1ccccc1-c1nc(CN2CCC(C(=O)NCc3cccnc3)CC2)c(C)o1	%	88.5
CN(C)CCOC(C)(c1ccccc1)c1ccccn1 (centres undefined)	%	79.5
CC(C)(C)C(=O)CNS(=O)(=O)c1ccc(S(=O)(=O)NC2CCCC2)cc1	%	104

Report viability for every entry below.
1. O=C(C1CCCN(S(=O)(=O)c2ccc(Br)s2)C1)N1CCCCCC1 (centres undefined)
2. CCOC(=O)c1c(NCc2ccc3c(c2)OCO3)c2ccccc2[nH]c1=O

Result:
1: 83.5; 2: 100

Return reported viability values for all items listed beneath this line.
1. COC(=O)CN(c1ccc(C)c(Cl)c1)S(C)(=O)=O
2. CCOC(=O)C1CCN(C(=O)C2(NC(=O)Nc3ccccc3Cl)CCCCC2)CC1
3. CC1CCN(C(=O)CSc2nnc(-c3ccc(S(=O)(=O)N4CCOCC4)cc3)n2C)CC1

Result:
108
133
108

Where these numbers come from: PubChem BioAssay
